All figures here come from PubChem BioAssay (NCATS).

test system: DIV14; assay: qHTS profiling for inhibitors of Plasmodium falciparum proliferation (AID 504749); further: nearly all actives have a fitted effect of over 60% in size; details: P. falciparum in erythrocytes, SYBR Green DNA, 72 h; series mostly up to 28.7 µM
Records with an inconclusive call do not appear. Activity calls are given as the source filed them. The call rests on the fitted dose curve; in most records, active means well fitted inhibition curve with a large enough effect; inconclusive means small, poorly fitted or top-dose-only effect; inactive means flat fitted curve, though single readings scatter.
Choose one outcome from this list and give only that: active, inactive

## Task Test call, this compound: "Nc1ccc(S(=O)(=O)Nc2ccccc2)cc1"
## Result inactive

## Task Okay, and "O=C(O)CN1C(=O)c2cccc3cccc(c23)C1=O" ?
## Result inactive

## Task Moving on to "NCCNCCNCCN"
## Result inactive

## Task Thanks! And "NC(=O)NNc1ccccc1" ?
## Result inactive

## Task Another compound to look at: COCCOC(=O)C1=C(C)NC(C)=C(C(=O)OC/C=C/c2ccccc2)C1c1cccc([N+](=O)[O-])c1 (configuration not stated)
## Result active

## Task What about "NC(=O)NC(=O)Cc1ccccc1" ?
## Result inactive

## Task Similarly, "Nc1ncnc2c1ncn2[C@@H]1O[C@H](CO)[C@@H](O)[C@H]1O" ?
## Result inactive

## Task Now consider "O=C1NC(=O)[C@@]2(CCOc3ccc(F)cc32)N1" .
## Result inactive

## Task Same question for "CCOc1ccc2ccccc2c1C(=O)N[C@@H]1C(=O)N2[C@@H]1SC(C)(C)[C@@H]2C(=O)O" please.
## Result inactive

## Task Then this compound: "CCCCCCCCCCCCOS(=O)(=O)O"
## Result inactive

## Task Next record, please: "COC(=O)C1=C(C)NC(C)=C(C(=O)OC)C1c1ccccc1[N+](=O)[O-]"
## Result inactive

## Task Check "CCN(CC)CCNC(=O)c1c(C)[nH]c(/C=C2\C(=O)Nc3ccc(F)cc32)c1C" too.
## Result active

## Task Please give the result for "C=Cc1c(C)c2cc3[nH]c(cc4nc(cc5nc(cc1[nH]2)C(C)=C5CCC(=O)O)C(CCC(=O)O)=C4C)c(C)c3C=C" too.
## Result inactive

## Task Proceed to "O=C1c2c(O)cccc2Cc2cccc(O)c21"
## Result inactive

## Task Likewise for "Cc1c(Cl)cccc1Nc1ccccc1C(=O)O" ?
## Result inactive

## Task Then what about the compound "CC(C)(C)C(=O)NCCCC(=O)O" ?
## Result inactive

## Task Also "Cc1ncc(COP(=O)(O)O)c(C=O)c1O" ?
## Result inactive

## Task Could you do the same for "Cc1cc(CC(=O)O)n(C)c1C(=O)c1ccc(Cl)cc1" , please?
## Result inactive

## Task Also need "CC(=O)Nc1ccc(/C=N/NC(N)=S)cc1" , thanks.
## Result inactive

## Task # repeat for "[O-][n+]1cccc(CO)c1"
## Result inactive

## Task Please answer likewise for "O=c1cc(CO)occ1O"
## Result inactive

## Task Queued: "O=C(O)COc1nn(Cc2ccccc2)c2ccccc12"
## Result inactive

## Task Next compound up: "CCC(=O)c1ccc(O)cc1"
## Result inactive

## Task Then this compound: "Oc1cn2c(n1)Nc1ccc(Cl)c(Cl)c1C2"
## Result inactive

## Task Ok, now "O=Cc1ccccc1C=O"
## Result inactive

## Task And CC(C(O)c1ccc(O)cc1)N1CCC(Cc2ccccc2)CC1 (configuration not stated) ?
## Result active

## Task Repeat with "NCCNCCNCCNCCN"
## Result inactive

###

Experiment: qHTS of pediatric cancer cell lines to identify multiple opportunities for drug repurposing: Confirmatory screen for A673 cells (AID 1347110);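 further: cells exposed to compound for 48 h before the viability read; nearly all actives have a fitted effect of over 65% in size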
Settings: A673 Ewing sarcoma cell viability; series mostly up to 45.9 µM
Procedure: Drug repurposing or repositioning has been offered as a strategy for drug development in oncology programs. […] [1] Shen, M et al. Quantitative high-throughput phenotypic screening of pediatric cancer cell lines identifies multiple opportunities for drug repurposing. […] Cells were assayed in growth media at a density of 500-1,000 cells/well. […] After a 15min incubation at room temperature, samples were analyzed for luminescence intensity using a ViewLux High-throughput CCD imager equipped with clear filters.
Records with an inconclusive call do not appear. Active and inactive are the calls of the source. The call rests on the fitted dose curve; in most records, active means well fitted cell-killing curve with a large enough effect; inconclusive means small, poorly fitted or top-dose-only effect; inactive means flat fitted curve, though single readings scatter.
Thanks in advance; please answer with one of these: True = active, False = inactive

## Task Look up the recorded call for "Cc1ccc2nc(N)[nH]c(=O)c2c1Sc1ccncc1" in this test.
## Result True

## Task Same read-out for "O=C(O)CN1C(=O)c2cccc3cccc(c23)C1=O" ?
## Result False

## Task What do you get for "C[C@@H]1C[C@H]2[C@@H]3C[C@H](F)C4=CC(=O)C=C[C@]4(C)[C@@]3(F)[C@@H](O)C[C@]2(C)[C@@]1(O)C(=O)CO" ?
## Result False

## Task How about "O=c1cc[nH]c(=S)[nH]1" ?
## Result True

## Task For "O=C1N=C(O)CN1/N=C/c1ccc(-c2ccc([N+](=O)[O-])cc2)o1" then?
## Result False

###

system: HeLa; test: Primary qHTS to identify gynecologic anti-cancer compounds using libraries of approved drugs and bioactive compounds (AID 1345084); conditions: Gynecologic cancer cell panel viability, ATPlite luminescence, 48 h; series mostly up to 57.5 µM; further: on the % scale 0 is the no-effect control and ±100 the full control effect; nearly all actives have a fitted effect of over 55% in size
Records with an inconclusive call do not appear. Activity calls are given as the source filed them. Calls come from the whole dose curve; as a rule, active = well fitted cell-killing curve with a large enough effect; inconclusive = small, poorly fitted or top-dose-only effect, or effect the other way; inactive = flat fitted curve, though single readings scatter.
MEASUREMENT_TYPE: activity change, negative = cytotoxicity

Look over these answered cases.
## Task Would you mind telling me what activity change, negative = cytotoxicity value was observed for "C[C@@H]1C[C@H]2[C@@H]3C[C@H](F)C4=CC(=O)C=C[C@]4(C)[C@@]3(F)[C@@H](O)C[C@]2(C)[C@@]1(O)C(=O)CO" ?
## Result inactive

## Task # repeat for "CCCn1cnc2c1c(=O)n(CCCCC(C)=O)c(=O)n2C"
## Result inactive

## Task And the next one, "CCC(=O)Nc1ccc(O)cc1" ?
## Result inactive

## Task And for "O=Cc1ccccc1C=O" ?
## Result inactive

## Task Same for "CCCCC/C(C=O)=C\c1ccccc1"
## Result inactive

Consider the additional molecule presented here.
## Task Entry CC(C)(C)C(=O)C(Oc1ccc(Cl)cc1)n1ccnc1 (centres undefined) has what activity change, negative = cytotoxicity?
## Result inactive

###

assay: Cell Viability - LYMP1-002 - Assay at 16 hr (AID 948); details: LYMP1-002 lymphoblastoid cell viability; series mostly up to 92.2 µM
Records with an inconclusive call do not appear. Calls of active or inactive are those of the source. Calls come from the whole dose curve; as a rule, active = well fitted cell-killing curve with a large enough effect; inconclusive = small, poorly fitted or top-dose-only effect; inactive = flat fitted curve, though single readings scatter.
Returns: one label drawn from Yes = active, No = inactive

## Task Lab log entry: "CC1(C)[C@@H]2CC[C@@]1(C)C(=O)C2" — outcome as called in the assay?
## Result No

## Task Could you do the same for "Nc1ccc(S(=O)(=O)Nc2nccs2)cc1" , please?
## Result No

## Task Follow-up entry: "Cc1c(O)cccc1C(=O)N[C@@H](CSc1ccccc1)[C@H](O)CN1C[C@H]2CCCC[C@H]2C[C@H]1C(=O)NC(C)(C)C"
## Result Yes

## Task One more molecule: "[Cl][In]([Cl])[Cl]"
## Result No

## Task Item: "O=C1O[C@H]([C@@H](O)CO)C(O)=C1O"
## Result No

## Task // next record "Cc1cc2nc3c(=O)[nH]c(=O)nc-3n(C[C@H](O)[C@H](O)[C@H](O)CO)c2cc1C"
## Result No

## Task Can you check "NC(=O)N/N=C/c1ccc([N+](=O)[O-])o1" next?
## Result No

## Task Record: "Oc1cccc(O)c1"
## Result No

## Task Also check "NC(=O)c1ncn([C@@H]2O[C@H](CO)[C@@H](O)[C@H]2O)n1"
## Result No

## Task Cool, now "O=C1c2c(O)cccc2Cc2cccc(O)c21"
## Result No

## Task Field entry: "Cc1cc(CC(=O)O)n(C)c1C(=O)c1ccc(Cl)cc1"
## Result No

###

assay: qHTS profiling for inhibitors of Plasmodium falciparum proliferation (AID 504749); further: nearly all actives have a fitted effect of over 60% in size;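 on activity, negative = inhibition: 0% = DMSO vehicle and full inhibition = artemisinin control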; settings: P. falciparum in erythrocytes, SYBR Green DNA, 72 h; at 28.7 µM (top of the series); parasite line A
Records with an inconclusive call do not appear.
For each of the compounds below, state its activity, negative = inhibition.
Numbers only here, please. The scale is %.

## Task # activity, negative = inhibition lookup, item "O=C1NS(=O)(=O)c2ccccc21"
## Result 2.53

## Task Also check "Cc1cccc(Nc2cc(Cl)nc(SCC(=O)O)n2)c1C"
## Result 11.5

## Task # repeat for "COc1ccccc1O"
## Result 6.24

## Task Likewise for "CCCCc1ncc(/C=C(\Cc2cccs2)C(=O)O)n1Cc1ccc(C(=O)O)cc1" ?
## Result 6.94

## Task Please answer likewise for "Cn1c(=O)c2c(ncn2CC2OCCO2)n(C)c1=O"
## Result -11.9

## Task Now this one: CNCCC(Oc1ccc(C(F)(F)F)cc1)c1ccccc1 (stereo not drawn)
## Result -5.44

## Task Moving on to CC(O)CN(CCN(CC(C)O)CC(C)O)CC(C)O (stereo not drawn)
## Result 7.8

## Task "O=c1cc(CO)occ1O" ?
## Result 1.47

## Task And the next one, "Cc1cccc(C)c1NC(=O)CN(CC(=O)O)CC(=O)O" ?
## Result 13.4

## Task Similarly, "O=C(O)c1ccccc1-c1ccc(C(F)(F)F)cc1" ?
## Result 11.3

## Task Likewise for "CC(=O)CCC(=O)O" ?
## Result 10.3

## Task Would you mind doing "Cc1cc(O)cc2c1O[C@](C)(CCC[C@H](C)CCC[C@H](C)CCCC(C)C)CC2" as well?
## Result -4.03

## Task Further, for "c1ccc(CN(CC2=NCCN2)c2ccccc2)cc1" ?
## Result -1.61
